molecular target: MPXV B6R ectodomain, His-tagged recombinant protein (mpox virus (MPXV), isolate MPXV_USA_2022_MA001); assay: SPR; BiaCore T200; […]; 1:1 binding model
Please assign criterion not met whenever koff is at or above 0.04 s⁻¹, and criterion met whenever it is below.

1) Nanobody B6R-05 (VHH) VHH: QVQLVESGGGLVQAGGSLRLSCAASGRIFHPGAMGWYRQAPGKEREFVAGISSGGNTYYADSVKGRFTISRDNAKNTVYLQMNSLKPEDTAVYYCAAPFRWVKATGRFLDYWGQGTQVTVSS ... criterion met
2) Nanobody B6R-02 (VHH) VHH: QVQLVESGGGLVQAGGSLRLSCAASGRIFRRNVMGWYRQAPGKEREFVAAITKGGYTNYADSVKGRFTISRDNAKNTVYLQMNSLKPEDTAVYYCAARYFHRKRHKWRHDYWGQGTQVTVSS ... criterion met
3) Nanobody B6R-06 (VHH) VHH: QVQLVESGGGLVQAGGSLRLSCAASGRIFRKRNMGWYRQAPGKEREFVASISRGSNTYYADSVKGRFTISRDNAKNTVYLQMNSLKPEDTAVYYCAVWRHRTFVRWKHFDYWGQGTQVTVSS ... criterion met

Continue with the next binder.
query: Please determine if Nanobody B6R-03 (VHH) VHH: QVQLVESGGGLVQAGGSLRLSCAASGRILHRKGMGWYRQAPGKEREFVAAINKGGSTNYADSVKGRFTISRDNAKNTVYLQMNSLKPEDTAVYYCAVGKKRRTWINRHYDYWGQGTQVTVSS is below 0.04 s⁻¹ in terms of koff.
result: criterion not met
